target: P2Y purinoceptor 1 (Homo sapiens); test: Agonist activity at P2Y1 receptor expressed in 1321N1 cells assessed as cytosolic calcium level at 10 uM relative to GTPgammaS control; type: functional, cell-based
Outcome Measure: Activity

COc1c(Br)cc(/C=C(\OS(=O)(=O)[O-])C(=O)O)cc1Br.[Na+] | < 37.5%
COc1c(Br)cc(CC(=O)O)cc1Br | < 37.5%

We next turn to a different compound, shown below.
Sure, the documented Activity for O=C(O)c1c(-c2ccc(O)c(Br)c2)oc2c(Br)cc(/C=C(OS(=O)(=O)[O-])/C(=C/c3cc(Br)c4oc(-c5ccc(O)c(Br)c5)cc4c3)OS(=O)(=O)[O-])cc12.[Na+].[Na+] is < 5%

----------
target: P2Y purinoceptor 2 (Homo sapiens); assay: Agonist activity at P2Y2 receptor expressed in 1321N1 cells assessed as cytosolic calcium level at 10 uM relative to GTPgammaS control; type: functional, cell-based
Outcome Measure: Activity

Worked cases, Activity given:
O=C(O)c1c(-c2ccc(O)c(Br)c2)oc2c(Br)cc(/C=C(OS(=O)(=O)[O-])/C(=C/c3cc(Br)c4oc(-c5ccc(O)c(Br)c5)cc4c3)OS(=O)(=O)[O-])cc12.[Na+].[Na+] | < 5%
COc1c(Br)cc(CC(=O)O)cc1Br | < 37.5%

Now for the molecule whose Activity we want.
Form: item COc1c(Br)cc(/C=C(\OS(=O)(=O)[O-])C(=O)O)cc1Br.[Na+] ; test system P2Y purinoceptor 2 (Homo sapiens); Activity: < 37.5%

----------
molecular target: P2Y purinoceptor 11 (Homo sapiens) (UniProt Q96G91); experiment: Agonist activity at P2Y11 receptor expressed in 1321N1 cells assessed as cytosolic calcium level at 10 uM relative to GTPgammaS control; type: functional, cell-based
Sequence (Q96G91 whole entry): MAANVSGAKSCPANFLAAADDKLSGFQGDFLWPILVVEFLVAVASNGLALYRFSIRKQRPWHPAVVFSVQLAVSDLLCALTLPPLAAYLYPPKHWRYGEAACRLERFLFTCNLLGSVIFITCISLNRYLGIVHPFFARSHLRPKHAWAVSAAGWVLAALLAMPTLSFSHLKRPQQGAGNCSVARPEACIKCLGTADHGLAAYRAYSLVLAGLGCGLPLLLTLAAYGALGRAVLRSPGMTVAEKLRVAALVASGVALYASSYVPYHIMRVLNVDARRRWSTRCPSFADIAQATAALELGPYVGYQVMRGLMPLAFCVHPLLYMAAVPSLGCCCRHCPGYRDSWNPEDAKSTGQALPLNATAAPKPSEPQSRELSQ
Outcome Measure: Activity

COc1c(Br)cc(/C=C(\OS(=O)(=O)[O-])C(=O)O)cc1Br.[Na+] | < 37.5%

Value (Activity, P2Y purinoceptor 11 (Homo sapiens) (UniProt Q96G91)) for record O=C(O)c1c(-c2ccc(O)c(Br)c2)oc2c(Br)cc(/C=C(OS(=O)(=O)[O-])/C(=C/c3cc(Br)c4oc(-c5ccc(O)c(Br)c5)cc4c3)OS(=O)(=O)[O-])cc12.[Na+].[Na+] [8-CARBOXY-ISO-IANTHERAN A] = 114%

Entry COc1c(Br)cc(CC(=O)O)cc1Br : Activity on P2Y purinoceptor 11 (Homo sapiens) (UniProt Q96G91) = < 37.5%

----------
target: P2Y purinoceptor 2 (Homo sapiens, UniProt P41231); assay: Agonist activity at P2Y2 receptor expressed in 1321N1 cells assessed as cytosolic calcium level
Sequence (P41231 whole entry): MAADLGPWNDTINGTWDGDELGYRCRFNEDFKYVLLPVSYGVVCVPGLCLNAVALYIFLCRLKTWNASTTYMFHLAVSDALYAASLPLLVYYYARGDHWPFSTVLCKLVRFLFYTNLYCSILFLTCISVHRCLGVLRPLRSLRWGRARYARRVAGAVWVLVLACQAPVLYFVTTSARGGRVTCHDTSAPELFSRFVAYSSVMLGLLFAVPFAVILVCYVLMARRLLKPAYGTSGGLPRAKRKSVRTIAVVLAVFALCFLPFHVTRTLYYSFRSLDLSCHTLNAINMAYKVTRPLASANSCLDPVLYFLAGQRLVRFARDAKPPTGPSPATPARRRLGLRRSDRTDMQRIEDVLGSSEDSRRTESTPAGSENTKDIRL
Outcome Measure: pEC50
Note on pEC50: it is the negative log10 of concentration, concentration in mol/L.

So, O=c1ccn([C@@H]2O[C@H](COP(=O)(O)OP(=O)(O)OP(=O)(O)O)[C@@H](O)[C@H]2O)c(=O)[nH]1 [URIDINE TRIPHOSPHATE] ? Its pEC50 was 6.96

Value source: ChEMBL document CHEMBL1138233
